System: HCT116 MTAP-deleted cell lines
assay_explanation: Cell viability assay (CellTiter-Glo, 7 days), HCT116 MTAP-deleted
Format: cell-based
assay_setup: Homo sapiens, HCT-116; cell viability assay, HCT116 MTAP-deleted; class symbols; read-out: CC50
Readings of CC50 for the listed compounds

Example results:
[
  {
    "compound": "CN(C(=O)c1cc2c(cc1F)nc(N)c1cncn12)[C@@H]1COc2cc(C3CCOC3(C)C)ccc21 (stereo partly drawn) [Ff-486]",
    "CC50": "< 0.1 µM"
  },
  {
    "compound": "CN(C(=O)c1cc2c(cc1F)nc(N)c1cncn12)[C@@H]1COc2cc(C#CC3C4COCC34)ccc21 (stereo partly drawn) [Ff-524]",
    "CC50": "< 0.1 µM"
  },
  {
    "compound": "Nc1nc2cc(F)c(C(=O)N3CC4CCC(C4)C3c3ccc(C(F)(F)F)cn3)cc2n2cncc12 (stereo not drawn) [Ff-512]",
    "CC50": "0.1 to 1 µM"
  },
  {
    "compound": "Cn1cc(N(Cc2ccc(C(F)(F)F)cc2F)C(=O)c2cc3c(cc2F)nc(N)c2cncn23)c(Cl)n1 [Ff-421]",
    "CC50": "< 0.1 µM"
  },
  {
    "compound": "C[C@@H]1C[C@@H]2Oc3cc(OC(F)(F)F)ccc3[C@@H]2N(C(=O)c2cc3c(cc2F)nc(N)c2cncn23)C1 [Ff-500]",
    "CC50": "< 0.1 µM"
  },
  {
    "compound": "Cc1cn(-c2ccc3c(c2)OC[C@H]3N(C)C(=O)c2cc3c(cc2F)nc(N)c2cncn23)cn1 [Ff-544]",
    "CC50": "< 0.1 µM"
  },
  {
    "compound": "COc1cc(C(F)(F)F)ccc1[C@@H](C)N(C)C(=O)c1cc2c(cc1F)nc(N)c1cncn12 [Ff-535]",
    "CC50": "0.1 to 1 µM"
  },
  {
    "compound": "Cc1nc(C)n2c1c(N)nc1ccc(C(=O)N(C)[C@@H]3COc4cc(C(F)(F)F)ccc43)cc12 [Fg-18]",
    "CC50": "0.1 to 1 µM"
  }
]

Entry under test: CCc1cc2nc(N)c3cncn3c2cc1C(=O)N(C)[C@@H]1COc2cc(C(F)(F)F)ccc21 [Fg-52] . Its CC50 was < 0.1 µM

Entry under test: CN(C(=O)c1cc2c(cc1F)nc(N)c1cncn12)[C@@H]1COc2cc(C(F)F)c(Cl)cc21 [Ff-653] . Its CC50 was < 0.1 µM

Entry under test: Cc1ncn2c1c(N)nc1ccc(C(=O)N3C[C@@H](C)O[C@@H]4Cc5cc(OC(F)(F)F)ccc5[C@@H]43)cc12 (single isomer, unassigned) [Fg-22] . Its CC50 was < 0.1 µM

Entry under test: C[C@H](c1ccc(C(F)(F)F)cn1)N(C)C(=O)c1cc2c(cc1F)nc(N)c1cncn12 [Ff-532] . Its CC50 was < 0.1 µM

Entry under test: Nc1nc2cc(F)c(C(=O)N3CCC[C@@H]4Oc5cc(C(F)(F)C(F)(F)F)ncc5[C@@H]43)cc2n2cncc12 [Fg-40] . Its CC50 was < 0.1 µM

Entry under test: Cc1ncc2c(N)nc3ccc(C(=O)N4C[C@@H](C)O[C@@H]5Cc6cc(C(F)(F)F)ccc6[C@@H]54)cc3n12 [Ff-631] . Its CC50 was 0.1 to 1 µM

Entry under test: CO[C@@H]1Cc2cc(-c3cnn(C(F)F)c3)ccc2[C@@H]1N(C)C(=O)c1cc2c(cc1F)nc(N)c1cncn12 [Ff-580] . Its CC50 was 0.1 to 1 µM

Values were extracted from patent US12448388B2.
